Assignment: determine reported kon for the given binders.
Target: T1, human TPBG antigen immobilized on a CM5 chip (human, UniProt Q13641 32-355, limits assumed)
T1 sequence (looked up): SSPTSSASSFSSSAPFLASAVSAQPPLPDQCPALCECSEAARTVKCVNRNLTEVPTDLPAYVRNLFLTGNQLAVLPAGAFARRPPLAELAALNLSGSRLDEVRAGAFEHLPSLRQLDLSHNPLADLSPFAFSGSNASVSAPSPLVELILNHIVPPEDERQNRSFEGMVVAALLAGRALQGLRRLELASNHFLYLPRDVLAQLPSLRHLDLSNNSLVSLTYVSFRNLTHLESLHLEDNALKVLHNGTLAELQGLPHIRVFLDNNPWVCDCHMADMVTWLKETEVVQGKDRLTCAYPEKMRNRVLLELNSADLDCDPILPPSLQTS
Assay: SPR (Biacore), human TPBG antigen immobilized on CM5 chip
Numbers only, in M⁻¹ s⁻¹.

Sample answers from the record:
BINDER	kon [M⁻¹ s⁻¹]
Humanized antibody 12B12-15 (antibody, V domains shown, also called h12B12-15) VH: EVQLVESGGGVVQPGRSLRLSCAASGFTFSNFGMHWVRQAPGKGLEWVAYISSGSTSFYYADTVKGRFTISRDNSKNTLYLQMNSLRAEDTAVYYCARTNSLLRGFFDAWGQGTTVTVSS VL: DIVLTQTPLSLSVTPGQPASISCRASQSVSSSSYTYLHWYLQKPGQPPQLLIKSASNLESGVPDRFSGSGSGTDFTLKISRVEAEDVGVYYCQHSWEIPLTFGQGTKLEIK	1.77e+06
Humanized antibody 28D4-8 (antibody, V domains shown, also called h28D4-8) VH: EVQLVESGGGLVKPGGSLRLSCAASGFTFSNYVMSWARQAPGKRLEWVAEISTGGSHTYYSDTVTGRFTISRDNAKKSLYLQMNSLRAEDTAVYYCIMFYYGSSYSMDYWGQGTTVTVSS VL: DIQMTQSPSSLSASVGDRVTITCRASQDIRNYLNWYQQKPGKAPKLLIYHTSRLHSGVPSRFSGSGSGTDYTFTISSLQPEDIATYYCQQGDTLPLTFGQGTRLEIK	1.02e+06

# ---- query binder ----
Please give the measured kon for this binder: Chimeric antibody 12B12 (antibody, V domains shown, Mouse variable domains on human IgG1 heavy and human kappa light constant regions; also called c12B12; TPBG chimeric antibody 12B12) VH: DVQLVESGGGLVQPGGSRKLSCAASGFTFSNFGMHWVRQAPEKGLEWVAYISSGSTSFYYADTVKGRFTISRDNPKNTLFLQMTSLRSEDTAMYYCSRTNSLLRGFFDAWGAGTTVTVSS VL: DIVLTQSPASLAVSLGQRATISCRASQSVSSSSYTYLHWYQQKPGQPPKLLIKSASNLESGVPARFSGTGSGTDFTLNIHPVEEEDTATYYCQHSWEIPLTFGAGTKLELK
1.61e+06

Value source: patent US20200062856A1
